PROTOCOL SUMMARY: Half life in iv dosed Beagle dog measured up to 24 hrs by LC-MS analysis
Format: ADME, organism-based, Canis lupus familiaris
EXPERIMENTAL PARAMETERS: in vivo
MEASURED PROPERTY: half-life (min)

                                   compound  measured_property  unit_spec  value_reported
0  C[C@H]([C@H](C(=O)Nc1cc(C[C@H](C)C(=O)O)ccc1Cl)c1ccc(Cl)cc1)C(F)(F)F          half-life        min             558
1  C[C@H]([C@H](C(=O)Nc1cc(CC2(C(=O)O)CC2)ccc1Cl)c1ccc(Cl)cc1)C(F)(F)F          half-life        min             660

----------
PROTOCOL SUMMARY: Blood clearance in Beagle dog at 0.3 mg/kg, iv measured up to 24 hrs by LC-MS analysis
Assay type: ADME, organism-based, Canis lupus familiaris
EXPERIMENTAL PARAMETERS: whole blood
MEASURED PROPERTY: clearance (mL/min/kg)
Quick reminder: number only, in mL/min/kg, skip the unit.

Q) Look up clearance for this compound: C[C@H]([C@H](C(=O)Nc1cc([C@@H](CC(=O)O)C2CC2)ccc1Cl)c1ccc(Cl)cc1)C(F)(F)F [RUNCACIGUAT]
A) 23.3

----------
TARGET SYSTEM: Guanylate cyclase soluble subunit alpha-1 (Rattus norvegicus) (UniProt P19686)
PROTOCOL SUMMARY: Activation of recombinant rat sGC alpha1 subunit expressed in CHO cells assessed as induction of [32P-cGMP] formation using alpha-[32P-GTP] as substrate measured after 6 mins by luminescence assay
Assay type: cell-based
EXPERIMENTAL PARAMETERS: filed as activator
MEASURED PROPERTY: MEC (nM)

P: Cc1c(CCC(=O)O)cccc1NC(=O)[C@H](c1ccc(Cn2nc(-c3ccccc3)ccc2=O)cc1)C1CCCC1
Q: Cc1c(C=C[C@H](c2ccc(CN3N=C(c4ccccc4)OCC3=O)cc2)C2CCCC2)cccc1CCC(=O)O (mixture of isomers)
R: O=C(NCCCCC1(C(=O)O)CC1)[C@H](c1ccc(CN2N=C(c3ccccc3)OCC2=O)cc1)C1CCCC1
S: CC[C@H](C)[C@H](C(=O)Nc1cccc(CCC(=O)O)c1C)N1CCC(CN2N=C(c3ccccc3)OCC2=O)CC1
Q) Order all 4 entries above by recorded MEC, highest first, lowest last. Write out the labels following the order that was asked for.
A) Q, R, S, P
(Q: 300 nM, R: 10 nM, S: 7 nM, P: 1 nM)

----------
TARGET SYSTEM: Guanylate cyclase soluble subunit alpha-1 (Rattus norvegicus)
Sequence (whole entry): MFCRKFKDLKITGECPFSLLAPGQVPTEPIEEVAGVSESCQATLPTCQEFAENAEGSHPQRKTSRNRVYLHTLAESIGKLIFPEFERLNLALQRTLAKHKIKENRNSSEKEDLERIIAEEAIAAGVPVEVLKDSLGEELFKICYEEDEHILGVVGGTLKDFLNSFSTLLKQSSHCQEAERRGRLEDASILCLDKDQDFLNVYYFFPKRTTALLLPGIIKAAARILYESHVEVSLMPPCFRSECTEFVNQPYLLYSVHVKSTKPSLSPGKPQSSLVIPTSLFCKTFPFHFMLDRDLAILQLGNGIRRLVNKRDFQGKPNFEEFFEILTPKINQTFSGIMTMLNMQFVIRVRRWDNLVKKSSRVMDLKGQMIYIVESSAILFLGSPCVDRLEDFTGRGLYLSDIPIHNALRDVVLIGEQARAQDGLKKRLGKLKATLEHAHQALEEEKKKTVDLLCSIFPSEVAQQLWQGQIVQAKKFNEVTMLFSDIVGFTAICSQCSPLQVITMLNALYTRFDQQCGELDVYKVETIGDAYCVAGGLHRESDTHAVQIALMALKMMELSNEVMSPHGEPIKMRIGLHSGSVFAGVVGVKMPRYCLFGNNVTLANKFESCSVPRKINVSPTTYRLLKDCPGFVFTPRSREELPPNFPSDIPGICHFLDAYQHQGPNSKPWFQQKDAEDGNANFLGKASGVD
PROTOCOL SUMMARY: Activation of recombinant rat sGC alpha1 subunit expressed in CHO cells assessed as induction of [32P-cGMP] formation by measuring efficacy using alpha-[32P-GTP] as substrate measured after 6 mins by luminescence assay relative to control
Format: cell-based
EXPERIMENTAL PARAMETERS: filed as activator
MEASURED PROPERTY: Efficacy (%)

>>> df
                                   compound  measured_property  value_reported
0  C[C@H]([C@H](C(=O)Nc1cc([C@@H](CC(=O)O)C2CC2)ccc1Cl)c1ccc(Cl)cc1)C(F)(F)F           Efficacy              58

1: C[C@H]([C@H](C(=O)Nc1cc(C[C@H](C)C(=O)O)ccc1Cl)c1ccc(Cl)cc1)C(F)(F)F
2: CCc1ccc([C@@H](C(=O)Nc2cc(C3(CC(=O)O)CC3)ccc2F)[C@@H](C)C(F)(F)F)cc1
Q) Sorting ascending by Efficacy, which comes first: 1 or 2 ? Return value: the label identifying the chosen record.
A) 2

Attribution: ChEMBL document CHEMBL4808182
